Please go through the items and note down their EC50 of killing, ADCC (PBMC, HEK293-CLDN18.2 cells).
target: Claudin 18.2 (CLDN18.2), expressed on CHOS-CLDN 18.2 / HEK293-CLDN 18.2 / HCC827-CLDN 18.2 cells (human, UniProt P56856-2 1-261); assay: cell-based or functional assay
Use µg/mL as the unit, but write only the number.

Give the measured EC50 of killing, ADCC (PBMC, HEK293-CLDN18.2 cells) for QP14631461 (antibody, human IgG1, kappa, V domains shown, also called QP14611463) VH: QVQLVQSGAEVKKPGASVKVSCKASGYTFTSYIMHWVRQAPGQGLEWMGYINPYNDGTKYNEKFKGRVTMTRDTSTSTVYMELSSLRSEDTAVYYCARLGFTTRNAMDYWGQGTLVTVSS VL: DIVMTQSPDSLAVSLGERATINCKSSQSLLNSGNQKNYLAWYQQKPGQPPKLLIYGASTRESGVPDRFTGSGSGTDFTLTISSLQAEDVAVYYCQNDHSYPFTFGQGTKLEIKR
0.0115

Determine from records and report EC50 of killing, ADCC (PBMC, HEK293-CLDN18.2 cells) for QP14371433 (antibody, human IgG1, kappa, V domains shown, Humanized from QP190191; also called QP14331437) VH: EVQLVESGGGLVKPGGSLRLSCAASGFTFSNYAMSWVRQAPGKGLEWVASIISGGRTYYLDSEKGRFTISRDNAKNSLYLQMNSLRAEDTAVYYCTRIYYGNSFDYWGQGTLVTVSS VL: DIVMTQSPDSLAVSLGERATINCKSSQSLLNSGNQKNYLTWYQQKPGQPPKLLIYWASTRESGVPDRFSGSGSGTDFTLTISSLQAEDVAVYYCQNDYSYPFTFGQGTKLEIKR
0.0162

Using the record for QP14451440 (antibody, human IgG1, kappa, V domains shown, Humanized from QP192193; also called QP14401445) VH: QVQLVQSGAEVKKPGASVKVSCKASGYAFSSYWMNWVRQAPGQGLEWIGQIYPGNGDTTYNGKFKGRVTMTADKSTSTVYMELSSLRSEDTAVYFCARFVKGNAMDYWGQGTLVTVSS VL: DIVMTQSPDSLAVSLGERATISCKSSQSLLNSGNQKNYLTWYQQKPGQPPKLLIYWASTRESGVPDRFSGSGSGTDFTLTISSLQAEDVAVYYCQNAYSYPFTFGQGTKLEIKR , state its measured EC50 of killing, ADCC (PBMC, HEK293-CLDN18.2 cells).
0.0082

Answer with the recorded EC50 of killing, ADCC (PBMC, HEK293-CLDN18.2 cells) for the binder listed here: QP024025 (antibody, human IgG1, V domains shown, also called IMAB362; 175D10(IMAB362)) VH: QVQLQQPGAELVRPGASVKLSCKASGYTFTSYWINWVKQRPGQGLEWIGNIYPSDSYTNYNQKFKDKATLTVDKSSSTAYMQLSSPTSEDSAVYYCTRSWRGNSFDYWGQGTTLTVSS VL: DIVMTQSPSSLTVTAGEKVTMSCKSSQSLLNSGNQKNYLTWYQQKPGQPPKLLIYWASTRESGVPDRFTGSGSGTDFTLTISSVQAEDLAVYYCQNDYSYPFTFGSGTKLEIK
0.0156
